Source: patent US20200223889A1

Tested system: human melanocortin 1 receptor (human, UniProt Q01726 1-317)
Sequence (Q01726 whole entry): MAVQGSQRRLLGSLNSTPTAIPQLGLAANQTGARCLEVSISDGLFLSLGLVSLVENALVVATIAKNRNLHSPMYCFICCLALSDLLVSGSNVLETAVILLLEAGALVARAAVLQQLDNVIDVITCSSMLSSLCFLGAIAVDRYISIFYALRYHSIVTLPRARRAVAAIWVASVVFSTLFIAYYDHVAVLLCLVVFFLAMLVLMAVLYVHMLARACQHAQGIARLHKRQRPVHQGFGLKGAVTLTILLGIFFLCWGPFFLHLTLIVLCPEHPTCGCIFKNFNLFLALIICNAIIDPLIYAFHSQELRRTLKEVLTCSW
Test description: cell-based or functional assay
Positions of bridges follow the written chain, without caps; N, C: chain ends. Non-standard residues stand in square brackets, D forms with d. Thz = O=C(O)[C@@H]1CSCN1; Sar = CNCC(=O)O
Listed below: MC1R cAMP EC50 values for each entry.

Answered cases to consult:
Binder	MC1R cAMP EC50
cyclo(CPH[dF]HWCAKKKW) (disulfide 1-7, also called c[c[Cys-Pro-His-D-Phe-His-Trp-Cys]-Ala-Lys-Lys-Lys-Trp]) [Chem. 62]	> 1 nM
cyclo(C[Thz]H[dF]HWCAEEAW) (disulfide 1-7; SMILES C[C@@H]1NC(=O)[C@H](CCC(=O)O)NC(=O)[C@H](CCC(=O)O)NC(=O)[C@H](C)NC(=O)[C@@H]2CSSC[C@H](NC(=O)[C@H](Cc3c[nH]c4ccccc34)NC1=O)C(=O)N1CSC[C@H]1C(=O)N[C@@H](Cc1c[nH]cn1)C(=O)N[C@H](Cc1ccccc1)C(=O)N[C@@H](Cc1c[nH]cn1)C(=O)N[C@@H](Cc1c[nH]c3ccccc13)C(=O)N2, also called c[c[Cys-THAZ-His-D-Phe-His-Trp-Cys]-Ala-Glu-Glu-Ala-Trp]) [Chem. 105]	> 100 nM

Req: Which MC1R cAMP EC50 value is on record for cyclo(C[Sar]H[dF]HWCAKKKR) (disulfide 1-7; SMILES C[C@@H]1NC(=O)[C@@H]2CSSC[C@H](NC(=O)[C@H](CCCNC(=N)N)NC(=O)[C@H](CCCCN)NC(=O)[C@H](CCCCN)NC(=O)[C@H](CCCCN)NC1=O)C(=O)N(C)CC(=O)N[C@@H](Cc1c[nH]cn1)C(=O)N[C@H](Cc1ccccc1)C(=O)N[C@@H](Cc1c[nH]cn1)C(=O)N[C@@H](Cc1c[nH]c3ccccc13)C(=O)N2, also called c[c[Cys-Sar-His-D-Phe-His-Trp-Cys]-Ala-Lys-Lys-Lys-Arg]) [Chem. 74] ?
Resp: > 5.5 nM
